Biological target: T1, His-tagged human TIGIT (human, UniProt Q495A1 22-141)
T1 construct: SPR analyte; also called human TIGIT protein; not shown: His tag
T1 sequence: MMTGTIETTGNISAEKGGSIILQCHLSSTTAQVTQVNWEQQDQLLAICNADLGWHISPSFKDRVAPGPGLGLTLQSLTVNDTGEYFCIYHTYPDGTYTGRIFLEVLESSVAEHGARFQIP
Assay: SPR experiment 2, IgG from HEK293 supernatant captured
readout.label: koff (s⁻¹)
One number for each entry, in s⁻¹.

binder	koff (s⁻¹)
humanized TIGIT-19 antibody 19VH4.M6 + 19VL1 (antibody, V domains shown, Full-length IgG, tested as HEK293 supernatant) VH: QVQLVQSGAEVKKPGASVKVSCKASGYTFTRYSMYWVRQAPGQGLEWIAFIDPYSGGSTYNQRFRGKATLTVDTSISTAYMELSRLRSDDTAVYYCARGGDYGWYLGVWGQGTLVTVSS VL: DIQMTQSPSSLSASVGDRVTITCRPSENIYTYLSWYQQKPGKAPKLLIYNAKTLPEGVPSRFSGSGSGTDFTLTISSLQPEDFATYYCQHHYGNPLTFGQGTKVEIK	0.00021

Pending binder:
Data request: // query koff value for entry humanized TIGIT-19 antibody 19VH4 + 19VL1.M6 (antibody, V domains shown, Full-length IgG, tested as HEK293 supernatant) VH: QVQLVQSGAEVKKPGASVKVSCKASGYAFSRYSMYWVRQAPGQGLEWIAFIDPYNGGSTYNQRFRGKATLTVDTSISTAYMELSRLRSDDTAVYYCARGGDYGWYLGVWGQGTLVTVSS VL: DIQMTQSPSSLSASVGDRVTITCRASQNIYSYLSWYQQKPGKAPKLLIYNAKSLPSGVPSRFSGSGSGTDFTLTISSLQPEDFATYYCQHHYGNPLTFGQGTKVEIK
Data returned: 0.00015
